Cited source for all entries: patent US4753881A

MEASURED_ON: deacetoxycephalosporin C synthetase (expandase) (Hapsidospora chrysogena, UniProt P11935)
Construct: prepared by sonicating fresh cell suspensions of Cephalosporium acremonium in buffer at pH 7-8; endogenous in cells; host or cells: Cephalosporium acremonium cells (crude cell extract, then chromatographic purification)
Sequence (P11935 whole entry): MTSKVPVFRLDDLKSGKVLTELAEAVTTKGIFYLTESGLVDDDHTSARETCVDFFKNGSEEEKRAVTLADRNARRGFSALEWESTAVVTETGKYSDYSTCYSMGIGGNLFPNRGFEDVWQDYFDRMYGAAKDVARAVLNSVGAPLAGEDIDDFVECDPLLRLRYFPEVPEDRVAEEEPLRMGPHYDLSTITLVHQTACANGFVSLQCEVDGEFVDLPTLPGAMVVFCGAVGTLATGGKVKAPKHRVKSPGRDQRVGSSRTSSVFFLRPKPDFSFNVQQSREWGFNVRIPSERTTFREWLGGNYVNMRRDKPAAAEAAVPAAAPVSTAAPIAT
ASSAY_NOTES: Enzyme activity assay (HPLC): expandase-catalyzed reaction, DAOC plus DAC from penicillin N
Type: biochemical, Cephalosporium acremonium
CONDITIONS: present in the incubation mixture
MEASUREMENT_KIND: Effect on expandase function of the purified enzyme

compound="O[C@H](CS)[C@H](O)CS (racemic)" reading=stimulated
compound=[Zn+2] reading=inhibited
compound=Nc1ncnc2c1ncn2[C@@H]1O[C@H](COP(=O)(O)OP(=O)(O)OP(=O)(O)O)[C@@H](O)[C@H]1O reading=stimulated
compound=O=C(O)c1cc(SSc2ccc([N+](=O)[O-])c(C(=O)O)c2)ccc1[N+](=O)[O-] reading=inhibited
compound="O=C1O[C@H]([C@@H](O)CO)C(O)=C1O [Ascorbate]" reading=stimulated

----------
MEASURED_ON: hydroxylase activity of the expandase-hydroxylase enzyme (Hapsidospora chrysogena)
Construct: prepared by sonicating fresh cell suspensions of Cephalosporium acremonium in buffer at pH 7-8; endogenous in cells; host or cells: Cephalosporium acremonium cells (crude cell extract, then chromatographic purification)
ASSAY_NOTES: Enzyme activity assay (HPLC): hydroxylase-catalyzed reaction, DAC from DAOC
Format: biochemical, Cephalosporium acremonium
CONDITIONS: present in the incubation mixture
MEASUREMENT_KIND: Effect on hydroxylase function of the purified enzyme

compound=Nc1ncnc2c1ncn2[C@@H]1O[C@H](COP(=O)(O)OP(=O)(O)OP(=O)(O)O)[C@@H](O)[C@H]1O reading=stimulated
compound="O=C1O[C@H]([C@@H](O)CO)C(O)=C1O [Ascorbate]" reading=stimulated
compound=O=C(O)c1cc(SSc2ccc([N+](=O)[O-])c(C(=O)O)c2)ccc1[N+](=O)[O-] reading=inhibited
compound=[Zn+2] reading=inhibited
compound="O[C@H](CS)[C@H](O)CS (racemic)" reading=stimulated
